All figures here come from the RNAGym collection of RNA variant scans (doi:10.7554/elife.80360).

B1: HDV Ribozyme (parent)
chain: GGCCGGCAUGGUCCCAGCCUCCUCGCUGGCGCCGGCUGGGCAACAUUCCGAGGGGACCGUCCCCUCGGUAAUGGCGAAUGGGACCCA

Variants of: B1
Assay: self-cleavage, relative activity (ratio to wild type); higher = more cleavage; co-transcriptional
Test Readout: self-cleavage
# answer = number (no unit)

In: For the variant GGCCGGCAUGGUCCCAGCCUCCUCGCUGGCGCCGGCUGGGCAACAUUCCGAGGGGACCGUCCGCUAGGUAAUGGCGAAUGGGACCCA [C63G C66A] , give its reported self-cleavage.
Out: 0.289

In: For the variant GGCCGGCAUGGUCCCAGCCUCCUCGCUGGCGCCGGCUGGGCAACAUUCCGAGGGGACCGUGCCCUCGGAAAUGGCGAAUGGGACCCA [C61G U69A] , give its reported self-cleavage.
Out: 0.789

In: For the variant CGCCGGCAUGGUCCCAGCCUCCUCGCUGGGGCCGGCUGGGCAACAUUCCGAGGGGACCGUCCCCUCGGUAAUGGCGAAUGGGACCCA [G1C C30G] , give its reported self-cleavage.
Out: 0.128

In: For the variant GGCUGGCAUGGUCCCAGCCUCCUCGCUGGCGCCGGCUGGGCAACAUUACGAGGGGACCGUCCCCUCGGUAAUGGCGAAUGGGACCCA [C4U C48A] , give its reported self-cleavage.
Out: 0.706

In: For the variant GGCCGGCAUGGUCCCAGCCUCCUCGCUGGCGUCGGCUGGGCAACAUUCCGAGGGGACCGUCCCCUCGGUAAUGGCGAAUCGGACCCA [C32U G80C] , give its reported self-cleavage.
Out: 0.132

In: For the variant GGCCGGCAUGGUCCCAGCCUCCUCGCUGGCGCCGGCUGGGCAACAUUCAGAGGGGACCGUCCCCUCGGAAAUGGCGAAUGGGACCCA [C49A U69A] , give its reported self-cleavage.
Out: 0.808

In: For the variant GGCCGGCAUGGUCCCAGCCUCCUCGCUGGCGCGGGCUGGGCAACAUUCCGAGGGGACCGUCCCCUCGGUAAUGGCGAAUGGGACCAA [C33G C86A] , give its reported self-cleavage.
Out: 0.146

In: For the variant GGCCCGCAUGGUCCCAGCCUCCUCGCAGGCGCCGGCUGGGCAACAUUCCGAGGGGACCGUCCCCUCGGUAAUGGCGAAUGGGACCCA [G5C U27A] , give its reported self-cleavage.
Out: 0.227

In: For the variant GGCCGGCAUGGUCCCAGCCUCCUAGCUGGCGCCGGCUGGGCAACAUUCCGAGGGGACCGUCCCCUCGGUAAUGGCGAAUGGGACCAA [C24A C86A] , give its reported self-cleavage.
Out: 0.607

In: For the variant GGGCGGCAUGGUCCCAGCCUCCUCGCUGGCGCCGGCUGGGCAACAUUCCGAGGGGACCGUCCCCUCGGUAAUGGCGUAUGGGACCCA [C3G A77U] , give its reported self-cleavage.
Out: 0.0297

In: For the variant GGCCGGCAUGGUCCCAGCCUCCUCGCUGGCGACGGCUGGGCAACAUUCCGAGGGGACCGUCCCCACGGUAAUGGCGAAUGGGACCCA [C32A U65A] , give its reported self-cleavage.
Out: 0.309

In: For the variant GGCCGGCAUGGUCCCAGCCUCCUCGCUGGCGCCGGCUGGGCAACAUUCCGAGGGGAACGUCCACUCGGUAAUGGCGAAUGGGACCCA [C57A C63A] , give its reported self-cleavage.
Out: 1.25

In: For the variant GGCCGGCAUCGUCCCAGCCUCCUCGCUGGCGCCGGCUGGGCAACAGUCCGAGGGGACCGUCCCCUCGGUAAUGGCGAAUGGGACCCA [G10C U46G] , give its reported self-cleavage.
Out: 0.346

In: For the variant GGCCGGCAUGGUCCCAGCCUCCUCGCUGGCGCCGGCUAGGCAACAUUUCGAGGGGACCGUCCCCUCGGUAAUGGCGAAUGGGACCCA [G38A C48U] , give its reported self-cleavage.
Out: 0.115

In: For the variant GGCCGGCAUGGUCCCAGCCUCCUCGGUGGCGCCGGCUGGGCAACAUUCCGAGGGGACCGUCCCUUCGGUAAUGGCGAAUGGGACCCA [C26G C64U] , give its reported self-cleavage.
Out: 0.99

In: For the variant GGCCGGCAUGGUCCCAGGCUCCUCGCUGGCGCCGGCUGGGCGACAUUCCGAGGGGACCGUCCCCUCGGUAAUGGCGAAUGGGACCCA [C18G A42G] , give its reported self-cleavage.
Out: 0.115

In: For the variant GGCCGGCAUGGUCCCAGCCUCCUCGCUUGCGCCGGCUGGGCAACAUUCCGAGGGGACCGUCUCCUCGGUAAUGGCGAAUGGGACCCA [G28U C62U] , give its reported self-cleavage.
Out: 0.205

In: For the variant GGCCGGCAUGGUCCCAGCCUCCUCGCUGGCGCCGGCUAGGCAACAUUCCGAGGGGACCGUCCCCUCGGUAAUGGUGAAUGGGACCCA [G38A C75U] , give its reported self-cleavage.
Out: 0.0443

In: For the variant GGCCGGCAUGGUCCCAGCCUCCUCGCUUGCGCCGGCUGGGUAACAUUCCGAGGGGACCGUCCCCUCGGUAAUGGCGAAUGGGACCCA [G28U C41U] , give its reported self-cleavage.
Out: 0.0779

In: For the variant GCCCGGCAUGGUCCCAGCCUCCUCGCUGGCGCCGGCUGGGCAACAUUCCGAGGGGACCGUCCCCUCGGUAAUAGCGAAUGGGACCCA [G2C G73A] , give its reported self-cleavage.
Out: 0.0252

In: For the variant GGCCGGCAUGGUCCCAGCCUCCUCGCUGGCGCCGGCUGGGCAACGUUCCGAGGGGACCGUGCCCUCGGUAAUGGCGAAUGGGACCCA [A45G C61G] , give its reported self-cleavage.
Out: 0.467

In: For the variant GGUCGGCAUGGUCCCAGCCUCCUCGCUGGCGCCGGCUGGGCAACAUUCCGAGGGGACCGUCCCCUCGGUAAUGGCGCAUGGGACCCA [C3U A77C] , give its reported self-cleavage.
Out: 0.0639

In: For the variant GGCCGGCAUGGUCCCAGCCUCCUCGCUGGCGCCGGCUGGGCAACAUUCCGACGGGACCGUCCCCUCGGUAAUGGCGUAUGGGACCCA [G52C A77U] , give its reported self-cleavage.
Out: 0.731

In: For the variant GGCCGGCAUGGUCCCAGCCUCCUCGCUGGCGCCGGCUGGGCAACAUUCCGAGGGGACCGGCCCCUCGGUGAUGGCGAAUGGGACCCA [U60G A70G] , give its reported self-cleavage.
Out: 0.911

In: For the variant GACCGGCAUGGUCCCAGCCUCCUCGCUGGCGCCGGCUGGGCAACAUUCCGAGGGGACCUUCCCCUCGGUAAUGGCGAAUGGGACCCA [G2A G59U] , give its reported self-cleavage.
Out: 0.19

In: For the variant GGCCGGCAUGGUCCCAGCCUCCUCGCUGGCGCCGGCUGGGCAACAUUCCGAGGGGACCAUCCCCUCGGCAAUGGCGAAUGGGACCCA [G59A U69C] , give its reported self-cleavage.
Out: 0.846

In: For the variant UGCAGGCAUGGUCCCAGCCUCCUCGCUGGCGCCGGCUGGGCAACAUUCCGAGGGGACCGUCCCCUCGGUAAUGGCGAAUGGGACCCA [G1U C4A] , give its reported self-cleavage.
Out: 0.277

In: For the variant CGCCGGCAUGGUCCCAGCCUCCUCGGUGGCGCCGGCUGGGCAACAUUCCGAGGGGACCGUCCCCUCGGUAAUGGCGAAUGGGACCCA [G1C C26G] , give its reported self-cleavage.
Out: 0.227

In: For the variant GGCCGGCAUGGUCCCUGCCUCCUCGCUGGCGCCGGCUGGGCAACAUUCGGAGGGGACCGUCCCCUCGGUAAUGGCGAAUGGGACCCA [A16U C49G] , give its reported self-cleavage.
Out: 0.91

In: For the variant GGCCGGCAUGGUCACAGCCUCCUCGCUGGCGCCGGCUGGGCGACAUUCCGAGGGGACCGUCCCCUCGGUAAUGGCGAAUGGGACCCA [C14A A42G] , give its reported self-cleavage.
Out: 0.277

In: For the variant GGCCGGCAUGGUCCCAGCCUCCUCGCUGGCGCCGGCUGGGCAAAAUACCGAGGGGACCGUCCCCUCGGUAAUGGCGAAUGGGACCCA [C44A U47A] , give its reported self-cleavage.
Out: 0.965

In: For the variant CGCCGGCAUGGUCCCAGCCUCCUCGCUGGCGCCGGCUGCGCAACAUUCCGAGGGGACCGUCCCCUCGGUAAUGGCGAAUGGGACCCA [G1C G39C] , give its reported self-cleavage.
Out: 0.0519

In: For the variant GGCCGGCAUGGUCCCAGCCUCCUCGCUGGCGCCGGCUGGGCAACAUUCCGAGGGGACCGUCCACUCGGUAAUGGCUAAUGGGACCCA [C63A G76U] , give its reported self-cleavage.
Out: 1.15

In: For the variant GGCCGGCAUGGUCCCAGCCUCCUCGCUGGCGCCGGCUGGGCAACAUUCCGAGGGGAUCGUCCCCUCGGUAAUGGCGCAUGGGACCCA [C57U A77C] , give its reported self-cleavage.
Out: 0.415

In: For the variant GGCCGGCGUGGUCCCAGCCUCCUCGCUGGCGCCGGCUGGGCAACAUUCCGAGGAGACCGUCCCCUCGGUAAUGGCGAAUGGGACCCA [A8G G54A] , give its reported self-cleavage.
Out: 0.877

In: For the variant GGCCGGCAUGGUCCCAGCCUCCUCGCUGGCGCAGGCUGGGCAACAUUCCGAGGGGACCGUCCCCUCGGUAAUGGCGAAUCGGACCCA [C33A G80C] , give its reported self-cleavage.
Out: 0.16

In: For the variant GGCCGGCAUGGUCCCAGCCUCCUCGCUGGCGCCGGCUGGGCAACAUUCCGAGGGGACCGUCCCCUCGGUGAUGGCGAAUGGGACGCA [A70G C85G] , give its reported self-cleavage.
Out: 0.831

In: For the variant GGCCGGCAUGGUCACAGCCUCCGCGCUGGCGCCGGCUGGGCAACAUUCCGAGGGGACCGUCCCCUCGGUAAUGGCGAAUGGGACCCA [C14A U23G] , give its reported self-cleavage.
Out: 0.222

In: For the variant GGCCUGCAUGGUCCCAGCCUCCUCGCUGGCGCCGGCUGGGCAACAUUCCGAGGGGACCGUCCCCUCUGUAAUGGCGAAUGGGACCCA [G5U G67U] , give its reported self-cleavage.
Out: 0.364

In: For the variant GGCCGGCAUGGUCCCAGCCACCUCGCUGGCGCCGGCUGGGAAACAUUCCGAGGGGACCGUCCCCUCGGUAAUGGCGAAUGGGACCCA [U20A C41A] , give its reported self-cleavage.
Out: 0.0396

In: For the variant GGCCGGCAUGGUCCCAGCCUCCUCGCUGGCACCGGCUGGGCAACAUUCCGAGGGGACCGUCCCCUCGGUAAUGGUGAAUGGGACCCA [G31A C75U] , give its reported self-cleavage.
Out: 0.122

In: For the variant GGCCGGCAUGGUCCCAGCCUCGUCGCUGGCGCCGGCUGGGCAACAUUCCGAGGGGACCGUCCCCUCGGGAAUGGCGAAUGGGACCCA [C22G U69G] , give its reported self-cleavage.
Out: 0.108

In: For the variant GGCCGGCAUGGUCCCAGCCGCCUUGCUGGCGCCGGCUGGGCAACAUUCCGAGGGGACCGUCCCCUCGGUAAUGGCGAAUGGGACCCA [U20G C24U] , give its reported self-cleavage.
Out: 0

In: For the variant GGCCGGCAUGGUCCCAGCCUCCUCGUUGGCGACGGCUGGGCAACAUUCCGAGGGGACCGUCCCCUCGGUAAUGGCGAAUGGGACCCA [C26U C32A] , give its reported self-cleavage.
Out: 0.256

In: For the variant GGCCGGCAUGGUCCCAGCCUCCUCGCUGGCGCCGACUGGGCAACAUUCCGAGGGGACCGUCCCCUCGGUAAUGGCGAGUGGGACCCA [G35A A78G] , give its reported self-cleavage.
Out: 0.138

In: For the variant GGCCGGCAUGGUCCGAGCCUCCUCGCUGGCGCCGGCUGGGCAACAUUCCGAUGGGACCGUCCCCUCGGUAAUGGCGAAUGGGACCCA [C15G G52U] , give its reported self-cleavage.
Out: 0.684
